# System: MS2 coat protein
# test-details: apparent KD of MS2 coat protein, switch ON state; designed switch direction (-1 OFF switch, 1 ON switch): -1; higher = weaker reporter binding
# condition-context: FMN input: 0 or 200 uM; Eterna round: R93 (includes R88 designs)
The label depends only on apparent KD of MS2 coat protein: true (1) if it is at least 30 nM, false (0) if it is smaller.

AAAAAAAGAGGAUAUACGUGAAAAAUAAAAAUGUAAAAACCACAUGAGGAUCACCCAUGUAGAAGGCUUAAAAA [Ecx-I 62% 2] :: false (0)

Q. Quick check, apparent KD of MS2 coat protein >= 30 nM? AGCUAGUCAGGAUAUACGAGCAUGUCAAAAGACGUGAAGGGACAUGAGGAUCACCCAUGUAGAAGGGACUAGCA [Diamond 22]
A. true (1)

Q. Quick check, apparent KD of MS2 coat protein >= 30 nM? AAGAACGCAGGAUAUACAUGAGGAUCACCCAUGUAAAAGAAAGAAAAGGGAAAGAAAAGUAGAAGGGCGAAGAA [Aakheperkare Thutmose I]
A. true (1)

Q. Quick check, apparent KD of MS2 coat protein >= 30 nM? AGGAAACAUGAGGAUCACCCAUGUAAGGAUAUGAACGAAAUAAAAUAAAAAUAAAAGUUCAGAAGGUACGAAAA [Mat - Exclusion 1 - Eli mod - D9]
A. false (0)

Q. Quick check, apparent KD of MS2 coat protein >= 30 nM? GUCCUACAUGAGGAUCACCCAUGUCAGGAUAUGUAGCGUCCGAGCGAAAAGGCCCGGAGCAGAAGGGACAGGUG [Maisbia]
A. false (0)

Q. Quick check, apparent KD of MS2 coat protein >= 30 nM? AGUAGGCGAGGAUAUACAUGAGGAUCACCCAUGUGAAAGAAAAAAGUGAGAAAGAAAAGUAGAAGGCGCUGACA [Ex 3 mod of Eli's mod of Lego's 73%]
A. true (1)
